- Measured target: T1, FX zymogen (UniProt P00742 41-179; P00742 183-488)
- T1 chain 1: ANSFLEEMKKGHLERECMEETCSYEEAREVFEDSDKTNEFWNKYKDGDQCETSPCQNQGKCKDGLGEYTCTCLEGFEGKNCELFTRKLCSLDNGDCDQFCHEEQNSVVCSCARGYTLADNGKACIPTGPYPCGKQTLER
- T1 chain 2: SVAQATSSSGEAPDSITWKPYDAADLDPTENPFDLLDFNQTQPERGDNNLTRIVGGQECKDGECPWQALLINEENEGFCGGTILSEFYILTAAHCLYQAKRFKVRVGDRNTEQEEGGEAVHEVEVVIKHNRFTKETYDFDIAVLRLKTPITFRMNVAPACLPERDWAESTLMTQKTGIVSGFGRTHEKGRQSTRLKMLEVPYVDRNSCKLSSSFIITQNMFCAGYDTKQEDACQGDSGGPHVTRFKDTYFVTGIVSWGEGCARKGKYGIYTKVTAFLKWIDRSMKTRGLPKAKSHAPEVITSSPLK
- Protocol summary: BLI
# note: boundary value 50 nM maps to condition not met; Kd below it maps to condition met

Determine whether this binder shows Kd lower than 50 nM (ties excluded): BIIB-12-926 (antibody, V domains shown) VH: QVQLVQSGAEVKKPGASVKVSCKASGYTFTSYYMHWVRQAPGQGLEWMGIINPSGGSTSYAQKFQGRVTMTRDTSTSTVYMELSSLRSEDTAVYYCARDGRMARGASPDYWGQGTLVTVSS VL: EIVMTQSPATLSVSPGERATLSCRASQSVSSNLAWYQQKPGQAPRLLIYGASTRATGIPARFSGSGSGTEFTLTISSLQSEDFAVYYCQQHSFWPPTFGGGTKVEIK condition met

Here is the next binder: BIIB-12-920 (antibody, V domains shown) VH: QVQLVQSGAEVKKPGASVKVSCKASGYTFTSYGISWVRQAPGQGLEWMGWISPYNGNTNYAQKLQGRVTMTTDTSTSTAYMELRSLRSDDTAVYYCARGSGHTTMFWGQGTLVTVSS VL: EIVMTQSPATLSVSPGERATLSCRASQSVSSNLAWYQQKPGQAPRLLIYSASTRATGIPARFSGSGSGTEFTLTISSLQSEDFAVYYCQQANAYPPTFGGGTKVEI condition met

Now give it for BIIB-12-1310 (antibody, V domains shown) VH: EVQLVESGGGLVKPGGSLRLSCAASGFTFSSYSMNWVRQAPGKGLEWVSSISSSSSYIYYADSVKGRFTISRDNAKNSLYLQMNSLRAEDTAVYYCARLGGYGSSQRYFDLWGRGTLVTVSS VL: EIVLTQSPATLSLSPGERATLSCRASQSVSRYLAWYQQKPGQAPRLLIYDASNRATGIPARFSGSGSGTDFTLTISSLEPEDFAVYYCEQASNWPPTFGGGTKVEIK too. condition met

Item: BIIB-12-934 (antibody, V domains shown) VH: QVQLVESGGGVVQPGRSLRLSCAASGFTFSSYGMHWVRQAPGKGLEWVAVISYDGSNKYYADSVKGRFTISRDNSKNTLYLQMNSLRAEDTAVYYCARESGGHSYGMDVWGQGTTVTVSS VL: EIVLTQSPATLSVSPGERATLSCRASQSVSSNLAWYQQKPGQAPRLLIYGASTRATGIPARFSGSGSGTEFTLTISSLQSEDFAVYYCQQFNDHPITFGGGTKVEI condition not met

What about BIIB-12-1315 (antibody, V domains shown) VH: QVQLVQSGAEVKKPGASVKVSCKASGYTFTSYYMVWVRQAPGQGLEWMGIINPSGGSTSYAQKFQGRVTMTRDTSTSTVYMELSSLRSEDTAVYYCARGRPSSKRVTYFDYWGQGTLVTVSS VL: EIVMTQSPATLSVSPGERATLSCRASQSVSSNLAWYQQKPGQAPRLLIYGASTRATGIPARFSGSGSGTEFTLTISSLQSEDFAVYYCQQVFNWPPWTFGGGTKVEIK ? condition not met

Values were extracted from patent US20230192896A1.
